Hello, the source for this data is patent US20250042994A1, in case you need it.

targetOfAssay: T1, Human CD19-his protein (human, UniProt P15391 20-291)
T1 construct: bought protein; also called human CD19 protein; recombinant human CD19-His; not shown: His tag
T1 sequence (looked up): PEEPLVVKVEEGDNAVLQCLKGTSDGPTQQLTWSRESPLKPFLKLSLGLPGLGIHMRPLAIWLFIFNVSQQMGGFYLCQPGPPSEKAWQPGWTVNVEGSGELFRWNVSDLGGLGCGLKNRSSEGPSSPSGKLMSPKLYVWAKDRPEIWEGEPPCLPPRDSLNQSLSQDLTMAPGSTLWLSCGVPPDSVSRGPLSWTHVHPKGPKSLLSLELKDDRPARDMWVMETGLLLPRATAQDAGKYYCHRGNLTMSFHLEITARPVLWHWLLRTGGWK
procedureDetails: ELISA, antibody at 10 nM
experimentalReadout: OD450
// keep it numeric: no unit symbol after the value

binder	readoutNumber
F6.5.20 (antibody, human IgG1, V domains shown, human-murine chimeric antibody, human IgG1) VH: QVQLQQPGAELVKPGASVKLSCKASGYTFTSYWMQWVKQRPGQGLEWIGEIDPSDSYTNYNQKFKGKASLTVDTSSSTAYMQLSSLTSEDSAVYYCARWGLLRNYYVMDYWGQGTSVTVSS VL: EIVLTQSPTTMAASPGEKITITCSASSSISSNYLHWYQQKPGFSPKLLIYRTSNLASGVPARFSGSGSGTSYSLTIGTMEAEDVATYYCQQGSSIPRMLTFGAGTKLELK	0.43

Turning now to a further binder:
Using the record for F4.21.2 (antibody, human IgG1, V domains shown, human-murine chimeric antibody, human IgG1) VH: QVQLKQSGPGLVQPSQSLSITCTVSGFSLSTYGVHWVRQSPGRGLEWLGVIWIGGTTDYNAAFISRLTISKDNSRGQVFFKMDSLQANDTAIYYCARKGYYKYDGGYYYAMDYWGQGTSVTVSS VL: DIQMTQSSSYLSVSLGGRVTITCKASDHINNWLAWYQQKPGNAPWLLISGATSLETGVPSRFSGSGSGKDYTLSISSLQTEDVATYYCQQYWSTPLTFGAGTKLELK , report its OD450.
1.94
